B1: Transcription intermediary factor 1-beta, residues 620 to 671; numbered along this chain, Q13263 (parent)
chain: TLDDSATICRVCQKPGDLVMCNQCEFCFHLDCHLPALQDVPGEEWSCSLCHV

Variants of: B1
experiment: abundance fitness (aPCA) (normalised: wild type 0, dead -1); higher = more abundant; growth selection in yeast, the domain comes from the species named
particulars: Homo sapiens
Recorded abundance fitness by entry
Number only, please.

mutation: R10T
abundance fitness: -0.037

Q: Which measured abundance fitness value corresponds to "P41D" ?
A: -0.245

Q: Proceed to "C21P"
A: -0.697

Q: Follow-up item: "H29Q"
A: -0.957

Q: Same question, "R10V" this time
A: -0.143

Q: Queued: "E43D"
A: 0.088
